Target entity: MeCP2-TBL1 interaction (MeCP2-SmBiT / TBL1-LgBiT) (Mus musculus, UniProt Q9QXE7)
Construct: expressed in transfected cells; crude lysate used as a cell-free assay
Sequence (Q9QXE7 166-527): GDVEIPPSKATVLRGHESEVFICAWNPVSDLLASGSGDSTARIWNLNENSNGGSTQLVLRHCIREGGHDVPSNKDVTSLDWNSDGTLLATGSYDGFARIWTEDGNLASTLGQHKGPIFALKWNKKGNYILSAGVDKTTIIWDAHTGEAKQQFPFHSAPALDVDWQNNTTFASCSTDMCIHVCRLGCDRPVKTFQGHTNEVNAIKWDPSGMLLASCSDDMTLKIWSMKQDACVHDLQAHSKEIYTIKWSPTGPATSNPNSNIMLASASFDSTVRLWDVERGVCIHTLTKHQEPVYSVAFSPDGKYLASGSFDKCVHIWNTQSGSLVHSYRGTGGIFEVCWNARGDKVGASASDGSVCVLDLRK
Assay explanation: MeCP2-TBL1 NanoLuc luciferase complementation assay (cell-free, extracts of transfected HEK293 cells);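 note: each compound tested at 20 µM final concentration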
Format: binding, human
Experimental context: primary screen of Asinex library, single well per compound
Property: Inhibition percent
Give a plain numeric answer without units written out.

The following compounds have reported results that may help.
Compound	Inhibition percent
CC(C)(NC(=O)CCc1ccccc1)C(=O)N1CCC(Cc2ccc3ncccc3c2)CC1 [BDH_32328019]	-2.64
Cc1cc(Oc2ccc(F)cc2)nc(C2CCCCN2C(=O)c2cccc(-c3cncnc3)n2)n1 (stereo not drawn) [BDH_32364853]	-0.96
O=C1COC2(CCCN(C(=O)c3ccccc3Cn3ccnc3)CC2)CN1CCc1ccccc1 (stereo not drawn) [BDH_32371928]	-2.75
COc1cccc([C@@H]2C[C@]3(C)NC(=O)CCCC[C@@H]3N2CC(=O)Nc2ccn(C)n2)c1 [BDH_33620384]	-2.63

// query Inhibition percent value for entry Cc1cc(C)n(CCCC(=O)N2CCCC[C@]3(C)NC(=O)CC[C@H]23)n1 [BDG_33850399]
0.88

Here is the next compound: C[C@]12C[C@@H](c3ccc(F)cc3)N(C(=O)c3cccc(Oc4ncccn4)c3)[C@H]1CCCCC(=O)N2 [BDH_32362535]
-1.66

Here is the next compound: CN1CCN(c2cc(C(=O)N3CCCCC3CCNC(=O)c3ccccc3)ccn2)CC1 (stereo not drawn) [BDH_32345153]
-1.36

Here is the next compound: CC(=O)N[C@@]12CN(C)CC[C@@H]1[C@@H](c1ccccc1)N(CC(=O)Nc1ccc(OC(F)F)cc1)C2 [BDH_33624452]
0.21

----------
Tested on: PRKACA-PRKAR2A interaction (SmBiT-PRKACA / LgBiT-PRKAR2A), protein kinase A
Parameters: NanoLuc complementation counter-screen in cell extract, PRKACA with PRKAR2A, loss of luminescence, detects NanoLuc interference
Experimental context: counter-screen for NanoLuc interference; 0.5 h, 20 µM; inhibitor
Where a name gives a salt, the structure may show the parent alone.
Property: Inh (PKA) (%)
Reply numerically in %, unit not repeated.

The following compounds have reported results that may help.
Compound	Unit spec	Inh (PKA)
O=C(N/N=C/c1ccc([N+](=O)[O-])o1)c1ccc(O)cc1 [UM0133346:02, Nifuroxazide]	%	17.08
CCS(=O)(=O)Nc1ccc2c(c1)/C(=C(/Nc1ccc(CN3CCCCC3)cc1)c1ccccc1)C(=O)N2	%	53.45
CC(C)C(=O)OCC(=O)[C@@]12O[C@H](C3CCCCC3)O[C@@H]1C[C@H]1[C@@H]3CCC4=CC(=O)C=C[C@]4(C)[C@H]3[C@@H](O)C[C@@]12C [UM0142517:01, Ciclesonide]	%	3.161
Cn1c(Nc2ccc(C(F)(F)F)cc2)nc2cc(Oc3ccnc(-c4ncc(C(F)(F)F)[nH]4)c3)ccc21	%	1.298
Oc1ccc(/C=C/c2cc(O)cc(O)c2)cc1	%	25.41
CCOc1cc2ncc(C#N)c(Nc3ccc(OCc4ccccn4)c(Cl)c3)c2cc1NC(=O)/C=C/CN(C)C	%	9.342
CC(C)NCC(O)c1ccc(NS(C)(=O)=O)cc1 (stereo not shown) [UM0142510:01, Sotalol hydrochloride]	%	-0.9356
CCS(=O)(=O)N1CCN(c2ccc(Nc3ncc(C(N)=O)c(NC4CC4)n3)cc2)CC1	%	16.29
COc1cc(-c2cc(-c3cccc(O)c3)cnc2N)cc(OC)c1OC	%	26.47
CCCCc1nc2cc(/C=C/C(=O)NO)ccc2n1CCN(CC)CC [UM0139427:02, Pracinostat (SB939)]	%	1.482

// query Inh (PKA) value for entry CN(C)CC/C=C1/c2ccccc2COc2ccc(CC(=O)O)cc21 [UM0142309:01, Olopatadine HCl]
-1.243

Here is the next compound: CC(C)(C)c1ccc(CN2CCN(C(c3ccccc3)c3ccc(Cl)cc3)CC2)cc1 (stereo not shown) [UM0142302:01, Buclizine HCl]
2.001

Here is the next compound: `Nc1ncnc2c1c(-c1cccc(OCc3ccccc3)c1)cn2[C@H]1C[C@@H](CN2CCC2)C1`
10.76

Here is the next compound: `Oc1cc(O)cc(/C=C/c2ccc(O)c(O)c2)c1`
17.81

Here is the next compound: `Cc1cnc(CNC(=O)c2c(=O)c3ccc(N4CCCN(C)CC4)nc3n3c2sc2ccccc23)cn1`
4.891

Here is the next compound: `Cc1ccc2nc(N)[nH]c(=O)c2c1Sc1ccncc1`
7.912
